ASSAYED TARGET: Large T antigen (Simian virus 40) (UniProt P03070)
Sequence (P03070 whole entry, looked up): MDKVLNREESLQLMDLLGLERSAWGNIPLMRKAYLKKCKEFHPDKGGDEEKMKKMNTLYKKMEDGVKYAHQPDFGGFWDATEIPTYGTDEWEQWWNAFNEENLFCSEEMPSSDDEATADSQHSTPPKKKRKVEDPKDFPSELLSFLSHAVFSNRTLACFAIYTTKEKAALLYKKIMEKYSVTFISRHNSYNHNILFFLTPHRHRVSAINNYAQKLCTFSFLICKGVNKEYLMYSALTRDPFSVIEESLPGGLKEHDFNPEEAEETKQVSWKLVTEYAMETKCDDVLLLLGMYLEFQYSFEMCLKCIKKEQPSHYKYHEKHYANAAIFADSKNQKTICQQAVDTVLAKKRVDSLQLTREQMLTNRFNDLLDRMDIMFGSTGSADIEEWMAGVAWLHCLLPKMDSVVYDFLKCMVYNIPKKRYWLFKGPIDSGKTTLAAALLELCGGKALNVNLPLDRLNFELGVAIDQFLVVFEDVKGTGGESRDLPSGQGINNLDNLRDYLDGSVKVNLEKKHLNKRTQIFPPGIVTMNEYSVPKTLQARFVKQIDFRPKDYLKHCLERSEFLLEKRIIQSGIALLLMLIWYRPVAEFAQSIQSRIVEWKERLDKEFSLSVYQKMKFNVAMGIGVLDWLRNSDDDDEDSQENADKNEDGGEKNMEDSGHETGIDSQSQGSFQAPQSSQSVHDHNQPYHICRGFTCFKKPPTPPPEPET
METHOD NOTES: SV40 large T antigen inhibitors, biochemical (AID 1903)
RECORDED CONDITIONS: SV40 large T antigen ATPase/helicase inhibition assay; at 20 µM; active compounds read high
Hit rate of the full screen: of about 310,000 compounds, about 1,200 (0.39%) were called active. A selection follows. Measured potencies and affinities stand elsewhere.
Exercise: state measured inhibition for each of the compounds provided.
Numbers only, in %.

For each listed entry, give its inhibition.
1. CN(C(=O)/C=C/c1ccc([N+](=O)[O-])s1)c1ccccc1
2. Cc1csc(Sc2ccc([N+](=O)[O-])cc2C(=O)OCC(=O)NC2CCCC(C)C2C)n1 (centres undefined)
3. CCN1CCN(c2cc(C)c3cc(NC(=O)Cc4ccc(OC)c(OC)c4)ccc3n2)CC1

Output:
[-0.18, 16.8, 2.02]

Task: inhibition lookup needed for CC1CC(C)CN(CC(=O)N2CCc3[nH]c4ccccc4c3C2)C1 (centres undefined) , thanks.
Output: -3.87
